Each record here notes measured normalised response.
system: MDA-MB-468; assay: normalised response (% of control), CellTox Green; higher = less cell death (100 = DMSO, 0 = benzethonium chloride kill control); conditions: incubation time: 72 h
Supply the numeric figure in %, leaving out any unit text.

Worked cases, answers included:
C[C@]12C=CC(=O)C=C1CC[C@@H]1[C@@H]2[C@@H](O)C[C@@]2(C)[C@H]1CC[C@]2(O)C(=O)CO [Prednisolone] (100 nM); 108
Cc1ccc(Nc2nccc(N(C)c3ccc4c(C)n(C)nc4c3)n2)cc1S(N)(=O)=O [Pazopanib] (10000 nM); 162
CCN(CC)CCNC(=O)c1c(C)[nH]c(/C=C2\C(=O)Nc3ccc(F)cc32)c1C [Sunitinib] (1000 nM); 66.4
COc1cc(CCc2cc(NC(=O)c3ccc(N4CC(C)NC(C)C4)cc3)n[nH]2)cc(OC)c1 (configuration not stated) [AZD4547] (1000 nM); 190
Cc1c(Cn2c(C)nc3c(C(=O)O)cc(N4CCOCC4)cc32)cccc1C(F)(F)F (1000 nM); 125

Query string: Requested read-out: normalised response. Entry: O=S(=O)(c1cccc2cnccc12)N1CCCNCC1 [Fasudil] (500 nM)
Result string: 78.7

Query string: Given the compound CS(=O)(=O)N1CCN(Cc2cc3nc(-c4cccc5[nH]ncc45)nc(N4CCOCC4)c3s2)CC1 [Pictilisib] (100 nM) , what is its reported normalised response?
Result string: 143

* * *

tested on: MDA-MB-231; experiment: normalised response (% of control), CellTiter-Glo; higher = more viable cells (100 = DMSO, 0 = benzethonium chloride kill control); conditions: incubation time: 72 h
// NO strictly below 50% in normalised response; YES otherwise

Example entries begin here.
CCN(CC)CCNC(=O)c1c(C)[nH]c(/C=C2\C(=O)Nc3ccc(F)cc32)c1C [Sunitinib] (1000 nM); YES
Cc1nc(Nc2ncc(C(=O)Nc3c(C)cccc3Cl)s2)cc(N2CCN(CCO)CC2)n1 [Dasatinib] (1000 nM); NO
CC/C(=C(\c1ccc(O)cc1)c1ccc(OCCN(C)C)cc1)c1ccccc1 [4-hydroxytamoxifen] (10000 nM); NO
CCC/C=C/C=C/C(=O)O[C@H]1/C(=C/C(=O)OC)C[C@H]2C[C@H]([C@@H](C)O)OC(=O)C[C@H](O)C[C@@H]3C[C@H](OC(C)=O)C(C)(C)[C@](O)(C[C@@H]4C/C(=C/C(=O)OC)C[C@H](/C=C/C(C)(C)[C@]1(O)O2)O4)O3 [Bryostatin 1] (100 nM); YES
O=C1c2c(O)ccc(O)c2C(=O)c2c(NCCNCCO)ccc(NCCNCCO)c21 [Mitoxantrone] (1000 nM); YES

Here's the next entry for you.
Query string: Does the molecule O=C(Nc1c[nH]nc1-c1nc2ccc(CN3CCOCC3)cc2[nH]1)NC1CC1 [AT9283] (1000 nM) have recorded normalised response that is 50% or more?
Result string: NO

* * *

Readings of normalised viability for the listed compounds
system: CAL-51; assay: normalised viability (% of control), CellTiter-Blue; higher = more viable cells (about 100 = DMSO control); conditions: incubation time: 72 h
Record the result as number plus unit.

COc1ccc(-c2cc3c(C)nc(N)nc3n([C@H]3CC[C@H](OCCO)CC3)c2=O)cn1 (3000 nM); 2.65%

Turning to the following compound.
Query string: Fill blank: measured normalised viability of the compound O=C(Nc1c[nH]nc1-c1nc2ccc(CN3CCOCC3)cc2[nH]1)NC1CC1 [AT9283] (3000 nM) is ____.
Result string: 25.5%

* * *

Each entry below carries its recorded normalised response.
system: MCF-10A; test: normalised response (% of control), CellTox Green; higher = less cell death (100 = DMSO, 0 = benzethonium chloride kill control); conditions: incubation time: 72 h
Kindly answer with a numeric value in %, unit omitted.

Field: example entries. Status: answers known.
Cn1cc(CNCC2CCN(c3ncc(C(=O)NO)cn3)CC2)c2ccccc21 [Quisinostat] (1000 nM); 56.8
O=C(NC[C@H](O)CO)c1ccncc1Nc1ccc(I)cc1F [Pimasertib] (10000 nM); 95.4
O=C(NC[C@H](O)CO)c1ccncc1Nc1ccc(I)cc1F [Pimasertib] (100 nM); 98.9
Cc1cccc(-c2nn3c(c2-c2ccnc4ccc(C(N)=O)cc24)CCC3)n1 [Galunisertib] (100 nM); 59.8
Cc1c(Cn2c(C)nc3c(C(=O)O)cc(N4CCOCC4)cc32)cccc1C(F)(F)F (10000 nM); 108
O=C(Nc1c[nH]nc1-c1nc2ccc(CN3CCOCC3)cc2[nH]1)NC1CC1 [AT9283] (1000 nM); 88.4

Query string: Reported normalised response for Cc1c(Cn2c(C)nc3c(C(=O)O)cc(N4CCOCC4)cc32)cccc1C(F)(F)F (100 nM) : what is it?
Result string: 101

Query string: What does the record list as normalised response for c1cc(CN2CCCNCCNCCCNCC2)ccc1CN1CCCNCCNCCCNCC1 [Plerixafor] (10000 nM) ?
Result string: 94.2

* * *

Collected normalised viability values appear next to each entry.
system: MDA-MB-453; assay: normalised viability (% of control), CellTiter-Blue; higher = more viable cells (about 100 = DMSO control); settings: incubation time: 72 h
Reply with the number and its unit after it.

Query string: # normalised viability lookup, item O=C(NC[C@H](O)CO)c1ccncc1Nc1ccc(I)cc1F (300 nM)
Result string: 98%

* * *

drug sensitivity score values for the compounds below.
test system: MFM-223; assay: drug sensitivity score (DSS), CellTox Green (DSS (AUC-based score)); higher = stronger drug effect (viability inhibition or cytotoxicity); extreme values may be limits of the assay; details: incubation time: 72 h
Lab note: record just the number, no unit beside it.

Query string: Short answer please: drug sensitivity score, MFM-223, entry Cn1cc(CNCC2CCN(c3ncc(C(=O)NO)cn3)CC2)c2ccccc21
Result string: 4.71

Query string: Give the reported drug sensitivity score for Nc1cccc2c1CN(C1CCC(=O)NC1=O)C2=O (stereo not given) [Lenalidomide] (system: MFM-223).
Result string: 0

Query string: Report drug sensitivity score for O=C(NC[C@H](O)CO)c1ccncc1Nc1ccc(I)cc1F tested on MFM-223.
Result string: 0

Query string: Any idea what drug sensitivity score came out for Cc1c(Cn2c(C)nc3c(C(=O)O)cc(N4CCOCC4)cc32)cccc1C(F)(F)F on MFM-223?
Result string: 0

Query string: Form field: drug sensitivity score recorded for CC(C)N(CCCNC(=O)Nc1ccc(C(C)(C)C)cc1)C[C@H]1O[C@@H](n2cc(Br)c3c(N)ncnc32)[C@H](O)[C@@H]1O with MFM-223 (enter value)
Result string: 0

* * *

# Lookup of reported EC50, CellTiter-Blue viability keyed by entry
system: HCC1599; conditions: 72 h

Completed entries (count: 4):
CCC/C=C/C=C/C(=O)O[C@H]1/C(=C/C(=O)OC)C[C@H]2C[C@H]([C@@H](C)O)OC(=O)C[C@H](O)C[C@@H]3C[C@H](OC(C)=O)C(C)(C)[C@](O)(C[C@@H]4C/C(=C/C(=O)OC)C[C@H](/C=C/C(C)(C)[C@]1(O)O2)O4)O3; > 100 nM
COc1ccc(-c2cc3c(C)nc(N)nc3n([C@H]3CC[C@H](OCCO)CC3)c2=O)cn1; 121 nM
COc1cc(CCc2cc(NC(=O)c3ccc(N4CC(C)NC(C)C4)cc3)n[nH]2)cc(OC)c1 (stereo not given); 270 nM
CS(=O)(=O)N1CCN(Cc2cc3nc(-c4cccc5[nH]ncc45)nc(N4CCOCC4)c3s2)CC1; 709 nM

Now take the following compound into account.
Query string: Could you share what EC50, CellTiter-Blue viability was measured for O=C(Nc1c[nH]nc1-c1nc2ccc(CN3CCOCC3)cc2[nH]1)NC1CC1 , tested on HCC1599?
Result string: 2120 nM

* * *

Entries and their normalised viability
test system: Hs578T; test: normalised viability (% of control), CellTiter-Blue; higher = more viable cells (100 = DMSO, 0 = benzethonium chloride kill control); conditions: 1 nM; incubation time: 72 h
The reply should be a number in %, with the unit left off.

The cases that follow already have their normalised viability on record.
Nc1ccccc1NC(=O)c1ccc(CNc2nccc(-c3cccnc3)n2)cc1 [Mocetinostat]; 113
Cc1c(CN2CCN(C(=O)[C@H](C)O)CC2)sc2c(N3CCOCC3)nc(-c3cnc(N)nc3)nc12 [GDC-0980]; 102
O=C(CCBr)N1CCN(C(=O)CCBr)CC1 [Pipobroman]; 95.3
C[C@]12C=CC(=O)C=C1CC[C@@H]1[C@@H]2[C@@H](O)C[C@@]2(C)[C@H]1CC[C@]2(O)C(=O)CO [Prednisolone]; 122

Okay, now this compound:
Query string: Look up normalised viability for this compound: Cc1ccc(Nc2nccc(N(C)c3ccc4c(C)n(C)nc4c3)n2)cc1S(N)(=O)=O [Pazopanib]
Result string: 94.8
